Assay: BSK_CASM3C_SRB: Viability Assessment in the BioMAP Diversity Plus: CASM3C Assay (AID 2283050);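 further: total protein by SRB staining as cytotoxicity measure in parallel cultures; cells exposed to compound for 24 h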
Conditions: primary human coronary artery smooth muscle cells
Activity calls are given as the source filed them. How the source made its calls: active means hit-call score of the fitted dose curve at least 0.9, where 1 is the maximum; inactive means score below 0.9.
The categories you may choose from are active, inactive

// known answers, use as guide
compound	assigned.category
OCC(CO)(CBr)CBr	inactive
C[C@]12CC[C@@H]3c4ccc(O)cc4CC[C@H]3[C@@H]1C[C@@H](O)[C@@H]2O	inactive
CC[N+](CC)(CC)Cc1ccccc1	inactive

Hello, I am checking results. What call was entered for "CCCCCCCCCCCCCCCCCC[N+](C)(C)Cc1ccccc1" ? active

Hello, I am checking results. What call was entered for "O=P(O)(O)CCC(F)(F)C(F)(F)C(F)(F)C(F)(F)C(F)(F)C(F)(F)C(F)(F)C(F)(F)F" ? inactive

Hello, I am checking results. What call was entered for "N=C(N)c1ccc(OCCCCCOc2ccc(C(=N)N)cc2)cc1" ? inactive

Hello, I am checking results. What call was entered for "C=CC(=O)OCCC(F)(F)C(F)(F)C(F)(F)C(F)(F)C(F)(F)C(F)(F)C(F)(F)C(F)(F)F" ? inactive

Hello, I am checking results. What call was entered for "CCCCCCCCCCCCCCC" ? inactive

Hello, I am checking results. What call was entered for CCC(C)c1ccccc1O (configuration not stated) ? inactive

Hello, I am checking results. What call was entered for "COC1=CC(=O)C[C@@H](C)[C@]12Oc1c(Cl)c(OC)cc(OC)c1C2=O" ? inactive

Hello, I am checking results. What call was entered for "Oc1ccc(Cc2ccccc2O)cc1" ? inactive

Hello, I am checking results. What call was entered for "CC(=O)Nc1ccc(O)cc1" ? inactive

Hello, I am checking results. What call was entered for "C=CC(=C)CC/C=C(\C)CCC=C(C)C" ? inactive

Hello, I am checking results. What call was entered for "Cc1ccc(N=Nc2c(O)ccc3ccccc23)c(C)c1" ? inactive

Hello, I am checking results. What call was entered for "CC1=NN(c2ccccc2)C(=O)C1" ? inactive

----------
Read-out: Matrix Metallopeptidase 1 (MMP1), MMP1 (gene 4312)
Test: BSK_hDFCGF_MMP1: BioMAP Diversity Plus: hDFCGF Assay for Matrix Metallopeptidase 1 (MMP1) Biomarker Activity (AID 2283064)
Settings: primary human foreskin fibroblasts; actives raise or lower the signal
Activity calls are given as the source filed them. How the source made its calls: active means hit-call score of the fitted dose curve at least 0.9, where 1 is the maximum; inactive means score below 0.9.
The categories you may choose from are true (active), false (inactive)

// known answers, use as guide
molecule	assigned.category
O=C1OC2(c3ccccc31)c1cc(I)c(O)c(I)c1Oc1c2cc(I)c(O)c1I	true
Cc1ccc(N=Nc2c(O)ccc3ccccc23)c(C)c1	false
Cc1ccc(C(=O)c2ccccc2)cc1	true

Moving on to the next molecule.
Hello, I am checking results. What call was entered for "O=C(NO)c1ccccc1" ? false

----------
Molecular target: Transcriptional activator Myb (Homo sapiens)
Experiment: ATG_Myb_CIS: Attagene CIS-FACTORIAL HepG2 Assay for human Myeloblastosis (Myb) Proto-Oncogene Transcription Factor (AID 2282986)
Details: HepG2 Attagene CIS-FACTORIAL Myb reporter transcription; actives raise or lower the signal
Calls of active or inactive are those of the source. The calls were made as follows: active = hit-call score of the fitted dose curve at least 0.9, where 1 is the maximum; inactive = score below 0.9.
experimental.readout: outcome

Some compounds with recorded outcome:
compound	outcome
CC1CCC(C(=O)O)CC1 (centres undefined)	inactive
CCCCCCCCCCCC	inactive
O=S(=O)(O)c1ccccc1	inactive
O=C(c1ccccc1)c1ccccc1	inactive
CCCC=O	inactive
Brc1cc(Br)c(Oc2c(Br)cc(Br)c(Br)c2Br)cc1Br	inactive
O=C1OC(=O)c2cc(-c3ccc4c(c3)C(=O)OC4=O)ccc21	inactive
CS(=O)(=O)c1ccc([C@@H](CC2CCCC2)C(=O)Nc2cnccn2)cc1Cl	inactive

Next compound, outcome to be filled in.
Short answer for "C=CC(=O)OCCC(F)(F)C(F)(F)C(F)(F)C(F)(F)C(F)(F)C(F)(F)F" : outcome was inactive

----------
Molecular target: Agonist Androgen Response Element (ARE), AR (gene 367) (UniProt P10275)
Sequence (P10275 whole entry, looked up): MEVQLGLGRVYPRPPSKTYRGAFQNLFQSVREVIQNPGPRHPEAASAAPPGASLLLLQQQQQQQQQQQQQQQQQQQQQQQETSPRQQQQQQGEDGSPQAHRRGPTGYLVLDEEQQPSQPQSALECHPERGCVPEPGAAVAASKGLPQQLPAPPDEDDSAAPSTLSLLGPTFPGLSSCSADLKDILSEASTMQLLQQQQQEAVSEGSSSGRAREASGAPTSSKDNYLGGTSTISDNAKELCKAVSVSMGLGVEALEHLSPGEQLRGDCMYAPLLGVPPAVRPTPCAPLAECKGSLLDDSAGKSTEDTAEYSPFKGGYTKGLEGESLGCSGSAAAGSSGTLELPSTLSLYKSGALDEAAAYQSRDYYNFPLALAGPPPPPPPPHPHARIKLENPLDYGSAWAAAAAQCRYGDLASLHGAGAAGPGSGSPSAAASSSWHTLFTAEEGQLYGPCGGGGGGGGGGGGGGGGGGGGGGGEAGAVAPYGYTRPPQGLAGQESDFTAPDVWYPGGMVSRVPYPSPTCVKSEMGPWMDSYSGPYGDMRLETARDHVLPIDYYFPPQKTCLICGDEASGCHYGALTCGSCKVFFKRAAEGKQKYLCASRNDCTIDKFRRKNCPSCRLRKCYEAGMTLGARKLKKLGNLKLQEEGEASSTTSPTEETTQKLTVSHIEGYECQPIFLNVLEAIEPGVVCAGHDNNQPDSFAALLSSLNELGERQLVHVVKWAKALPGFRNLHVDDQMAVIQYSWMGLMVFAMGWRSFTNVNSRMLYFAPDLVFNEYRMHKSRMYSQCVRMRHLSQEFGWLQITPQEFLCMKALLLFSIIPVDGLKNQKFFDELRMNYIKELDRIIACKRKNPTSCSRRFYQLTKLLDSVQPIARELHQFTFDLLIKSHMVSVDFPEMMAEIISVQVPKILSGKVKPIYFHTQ
Experiment: OT_AR_ARELUC_AG_1440: Odyssey Thera (OT) 24-hour CHO-K1 Luciferase Assay for Agonist Androgen Response Element (ARE) (AID 2283379)
Records with an inconclusive call do not appear. Active and inactive are the calls of the source. The calls were made as follows: active = hit-call score of the fitted dose curve at least 0.9, where 1 is the maximum; inconclusive = response in the unintended direction; inactive = score below 0.9.
The categories you may choose from are TRUE for active, FALSE for inactive

// known answers, use as guide
compound	tested.target	assigned.category
O=C(c1ccccc1)c1ccccc1	Agonist Androgen Response Element (ARE), AR (gene 367) (UniProt P10275)	FALSE
CN(Cc1cnc2nc(N)nc(N)c2n1)c1ccc(C(=O)N[C@@H](CCC(=O)O)C(=O)O)cc1	Agonist Androgen Response Element (ARE), AR (gene 367) (UniProt P10275)	FALSE
CCCCCCc1ccc(N)cc1	Agonist Androgen Response Element (ARE), AR (gene 367) (UniProt P10275)	FALSE

Hello, I am checking results. What call was entered for "CCCCCCC(C)(C)C(=O)O" ? FALSE

Hello, I am checking results. What call was entered for CC(O)COc1ccccc1 (stereo not given) ? FALSE

----------
Read-out: Bcl-2 (BAX) gene, BAX (gene 581)
Test: LTEA_HepaRG_BAX: Life Technologies and Expression Analysis (LTEA) Assay for Bcl-2 (BAX) gene using HepaRG (AID 2283470)
Details: mRNA level, 48 h; actives raise or lower the signal
Active and inactive are the calls of the source. How the source made its calls: active means hit-call score of the fitted dose curve at least 0.9, where 1 is the maximum; inactive means score below 0.9.
experimental.readout: AC50

Some compounds with recorded AC50:
compound	experimental.readout	result
CCCCc1oc2ccccc2c1C(=O)c1cc(I)c(OCCN(CC)CC)c(I)c1	AC50	65.2 µM (active)
O=C(CCCN1CCC(O)(c2ccc(Cl)cc2)CC1)c1ccc(F)cc1	AC50	81.1 µM (active)
CCCCC(CC)C(=O)O (centres undefined)	AC50	inactive
Cc1[nH]nc2c1N=C(c1ccccc1Cl)c1cc([N+](=O)[O-])ccc1N2	AC50	3.85 µM (active)

Short answer for "CCCCCCCCCCCCOS(=O)(=O)O" : AC50 was 50 µM (active)

Short answer for "N=C(N)c1ccc(OCCCCCOc2ccc(C(=N)N)cc2)cc1" : AC50 was 6.28 µM (active)

Short answer for "CCCCC=O" : AC50 was inactive

Short answer for "O=C(c1ccccc1)c1ccccc1" : AC50 was inactive

Short answer for "CCCCCCCCCCCCCCC" : AC50 was inactive

----------
Experiment: ATG_M_32_TRANS: Attagene TRANS-FACTORIAL HepG2 Assay for M32 Transcription Factor (Internal Marker) (AID 2282984)
Details: HepG2 Attagene TRANS M32 internal marker reporter
Inconclusive results are not listed. Active and inactive are the calls of the source. How the source made its calls: active means hit-call score of the fitted dose curve at least 0.9, where 1 is the maximum; inconclusive means response in the unintended direction; inactive means score below 0.9.
The categories you may choose from are active, inactive

// known answers, use as guide
compound	assigned.category
CCOC(=O)c1nc(C(Cl)(Cl)Cl)n(-c2ccc(Cl)cc2Cl)n1	active
Oc1ccc(Cc2ccccc2O)cc1	inactive
Clc1ccc2c(Cl)ccnc2c1	inactive
CCC(C)c1nccnc1OC (configuration not stated)	inactive
O=C(c1cc(O)c(O)c(O)c1)c1ccc(O)c(O)c1O	inactive
FC(F)(F)N1C(F)(F)C(F)(F)OC(F)(F)C1(F)F	inactive
O=C1NS(=O)(=O)c2ccccc21	inactive
OCCN1CN(CCO)CN(CCO)C1	inactive
O=c1cc(-c2ccccc2)oc2ccc3ccccc3c12	inactive
CCCCCCCCCCCC(=O)O	inactive

Hello, I am checking results. What call was entered for "C=CC(=O)OCCN(CC)CC" ? inactive

Hello, I am checking results. What call was entered for "NC(=NCCCCCCN=C(N)/N=C(\N)Nc1ccc(Cl)cc1)/N=C(\N)Nc1ccc(Cl)cc1" ? inactive

Hello, I am checking results. What call was entered for "CCCCCCC(C)(C)C(=O)O" ? inactive

Hello, I am checking results. What call was entered for "Cc1ccccc1OCC(=O)O" ? inactive

Hello, I am checking results. What call was entered for "Cc1ccc(C)c(S(=O)(=O)O)c1" ? inactive

Hello, I am checking results. What call was entered for "CCOC=C(C(=O)OCC)C(=O)OCC" ? inactive

Hello, I am checking results. What call was entered for "O=S(=O)(O)C(F)(F)C(F)(F)C(F)(F)C(F)(F)C(F)(F)C(F)(F)C(F)(F)C(F)(F)C(F)(F)C(F)(F)F" ? inactive

----------
Assay: ATG_NFI_CIS: Attagene CIS-FACTORIAL HepG2 Assay for human Nuclear Factor I (NFI) (AID 2282989)
Details: HepG2 cis-regulatory reporter, NFI response element transcription; actives raise or lower the signal
Calls of active or inactive are those of the source. Rule for the calls: active = hit-call score of the fitted dose curve at least 0.9, where 1 is the maximum; inactive = score below 0.9.
The categories you may choose from are active, inactive

// known answers, use as guide
molecule	assigned.category
FCOC(C(F)(F)F)C(F)(F)F	inactive
Cc1cccc2c1ccc1ccccc12	inactive
Cc1cc(Cc2cc(C)cc(C(C)(C)C)c2O)c(O)c(C(C)(C)C)c1	active
OCCN1CN(CCO)CN(CCO)C1	active
CCCC=O	inactive
C=C(c1ccc(C(=O)O)cc1)c1cc2c(cc1C)C(C)(C)CCC2(C)C	inactive
CCCCCCCCCCCCCCCCCC[N+](C)(C)Cc1ccccc1	inactive
CCCCCCCCC1CCC(=O)O1 (centres undefined)	inactive
CCc1ccccc1O	inactive
c1cnc2c(c1)ccc1cccnc12	inactive

Hello, I am checking results. What call was entered for "CCCCCCc1ccc(N)cc1" ? inactive

Hello, I am checking results. What call was entered for "C=CC(=O)OCCC(F)(F)C(F)(F)C(F)(F)C(F)(F)C(F)(F)C(F)(F)F" ? inactive

Hello, I am checking results. What call was entered for "O=C1OC2(c3ccccc31)c1cc(I)c(O)c(I)c1Oc1c2cc(I)c(O)c1I" ? inactive

Hello, I am checking results. What call was entered for "CCCCCCCC(OC)OC" ? inactive
